Test system: MALME-3M melanoma
assay-text: NCI tumour cell line growth inhibition, 48 h
Recorded log10 of TGI, one value per entry.
measured-attribute: log10 of TGI (log10 of the value in µM)

>  <smiles-data>
Cc1ccc(-c2c3c(N)c4c(nc3nc3c2c(C)nn3-c2ccccc2)CCC4)cc1

>  <experimental-result>
1.59

$$$$
>  <smiles-data>
CC1=NN(C(=O)c2nn(-c3ccc(Cl)cc3)cc2O)C(=O)C1

>  <experimental-result>
2.00

$$$$
>  <smiles-data>
O=c1c(Sc2ncccn2)c(Sc2ncccn2)cnn1CCl

>  <experimental-result>
0.63

$$$$
>  <smiles-data>
O=C1c2ccn(CCCCN(CCO)CCO)c2C(=O)c2c1c(O)c1ccccc1c2O

>  <experimental-result>
1.55

$$$$
>  <smiles-data>
Cc1cc(Cl)ccc1Nc1nc(C(F)(F)F)ccc1C(=O)Nc1cccc(C(F)(F)F)c1

>  <experimental-result>
0.96

$$$$
>  <smiles-data>
COc1cc(-c2oc3c(OC)c(O)cc(O)c3c(=O)c2OC)ccc1O

>  <experimental-result>
1.99

$$$$

---

Recorded TGI, one value per entry.
Test system: MDA-MB-231 breast
assay-text: NCI tumour cell line growth inhibition, 48 h

>  <molecule>
O=CN1N=C(c2ccc(Nc3ccnc4cc(Cl)ccc34)cc2)CC1c1ccc(Cl)cc1 (centres undefined)

>  <modifier-sign>
>

>  <TGI, µM>
100

$$$$
>  <molecule>
COc1cc2c3cc1Oc1c(OC)c(OC)cc4c1C(Cc1ccc(cc1)Oc1cc(ccc1O)CC3N(C)CC2)N(C)CC4 (centres undefined)

>  <modifier-sign>
=

>  <TGI, µM>
24.5

$$$$
>  <molecule>
Cc1c(C(N)=O)sc2c1c(=O)n(Cc1ccccc1)c1nnc(S(=O)(=O)CC(=O)Nc3ccc(Cl)cc3)n21

>  <modifier-sign>
=

>  <TGI, µM>
18.5

$$$$
>  <molecule>
CCCCN(CCCC)CCC(O)c1cc2ccc(C(F)(F)F)cc2c2cc(C(F)(F)F)ccc12 (centres undefined)

>  <modifier-sign>
=

>  <TGI, µM>
3.16

$$$$

---

Test system: EKVX NSCLC
assay-text: NCI tumour cell line growth inhibition, 48 h; in the data active = GI50 below about 0.43 µM; inactive = the rest
Possible outcomes: Y = active, N = inactive

>  <compound>
c1ccc(/C(=N\Nc2ccc3ccccc3n2)c2ccccn2)cc1

>  <assigned-category>
Y

$$$$
>  <compound>
CC(=O)n1c(-c2ccc(Cl)c(Cl)c2)cn(-c2ccc(Cl)cc2)c1=O

>  <assigned-category>
N

$$$$
>  <compound>
Cc1cn(Cc2ccccc2CCl)c(=O)n(Cc2ccccc2CCl)c1=O

>  <assigned-category>
N

$$$$
>  <compound>
COc1ccc2c(c1)C=C1CSCC3=Cc4cc(OC)ccc4OC13O2

>  <assigned-category>
N

$$$$
>  <compound>
O=C(CN1C(=O)S/C(=C\C(Cl)=C\c2ccccc2)C1=O)NCCCn1ccnc1

>  <assigned-category>
N

$$$$
>  <compound>
Cc1ccccc1NC(=O)c1cc2ccccc2cc1O

>  <assigned-category>
N

$$$$
>  <compound>
CCCC(CCC)C(=O)OCC1(CO)C/C(=C\c2ccc(C(F)(F)F)cc2)C(=O)O1 (centres undefined)

>  <assigned-category>
N

$$$$
>  <compound>
Cc1c(C(N)=O)sc2c1c(=O)n(Cc1ccccc1)c1nnc(S(=O)(=O)CC(=O)Nc3ccc(Cl)cc3)n21

>  <assigned-category>
N

$$$$
>  <compound>
COc1cc2c(cc1OCCCCCn1c3ccccc3c3ccccc31)N=C[C@@H]1CCCN1C2=O

>  <assigned-category>
N

$$$$
